system: NCI-H838; assay: relative viability (nuclei count vs DMSO), 5 days (fraction); higher = more cells survive; conditions: first compound 0.1 µM
Measured property: relative viability
Give only the figure.

Below, each entry is followed by its recorded relative viability result.
[[record]]
molecule = "O=c1cc(N2CCOCC2)oc2c(-c3cccc4c3sc3ccccc34)cccc12 + C[C@]1(O)C[C@@H](c2nc(-c3ccc4ccc(-c5ccccc5)nc4c3)c3c(N)nccn32)C1 [Linsitinib] (partner 1 µM)"
tgt = "NCI-H838"
measured_property = "relative viability"
recorded_result = 0.951

[[record]]
molecule = "CCN(CC)CCCCNc1ncc2cc(-c3cc(OC)cc(OC)c3)c(NC(=O)NC(C)(C)C)nc2n1 + O=C(CCCCCCC(=O)Nc1ccccc1)NO [Vorinostat] (partner 1 µM)"
tgt = "NCI-H838"
measured_property = "relative viability"
recorded_result = 0.779


Please examine the following record next.
Enquiry: Given the molecule CCN(CC)CCCCNc1ncc2cc(-c3cc(OC)cc(OC)c3)c(NC(=O)NC(C)(C)C)nc2n1 + N=C(N)NC(=N)NCCc1ccccc1 [Phenformin] (partner 250 µM) , write its reported relative viability.
Return: 0.597
